- System: oat, wild
- TEST DETAILS: Test C preemergence
- Assay type: in vivo, Avena fatua
- EXPERIMENTAL SETUP: Test C, preemergence, 125 g ai/ha; 0 to 100 scale (0 no effect, 100 complete control)
- Source text: […]
READOUT LABEL: Oat, Wild plant response rating

Problem: Tell me the measured Oat, Wild plant response rating of Cc1cccc2c1O[C@@H](C)CN2C(=O)c1cccc(-n2cnc([N+](=O)[O-])n2)c1 , please.
Result: 0

Problem: Next compound up: Cc1cccc2c1OC(C(F)(F)F)CN2C(=O)c1cccc(-n2cnc(C(C)C)n2)c1 (single isomer, unassigned) [Compound 302]
Result: 0

Problem: Next compound up: CC(C)c1ncn(-c2cccc(C(=O)N3CC(C(F)(F)F)Oc4c(Cl)cccc43)c2)n1 (single isomer, unassigned)
Result: 80

FYI, the data here is from patent US20260262643A1.
